Tested on: L1210 leukemia ip in BDF1 mice, survival T/C
method: NCI In Vivo Anticancer Drug Screen. Data for tumor model L1210 Leukemia (intraperitoneal) in B6D2F1 (BDF1) mice
test_conditions: endpoint: mean survival time; dose: 400.0 mg/kg/injection; schedule: Q04DX003 (ip); vehicle: Klucel (hydroxypropylcellulose) (HPC); higher = longer survival
Method: The antitumor activity of compounds was measured in mice bearing transplantable tumors. Survival or tumor size were measured and the results are expressed as the measurement made in the treated group (T) divided by the measurement made in the vehicle treated control group (C). The tumor model used in this assay is L1210 Leukemia (intraperitoneal) in B6D2F1 (BDF1) mice
Inconclusive results and toxic doses are left out.
T/C for assorted molecules

Query: Returns the measured T/C for the input molecule. Input: CCC(C)c1c(N)nc(N)[nH]c1=O (configuration not stated)
Result: 110 % of control

Query: Returns the measured T/C for the input molecule. Input: `O=C(NNc1ccccc1)c1ccccc1`
Result: 100 % of control

Query: Returns the measured T/C for the input molecule. Input: `Oc1ccc2ccccc2c1-c1c(O)ccc2ccccc12`
Result: 103 % of control

Query: Returns the measured T/C for the input molecule. Input: `CC(C)NNC(=O)c1ccc(Cl)cc1`
Result: 102 % of control

Query: Returns the measured T/C for the input molecule. Input: CN1C(=O)NC2ON=C(c3ccccc3)C2C1=O (configuration not stated)
Result: 100 % of control

Query: Returns the measured T/C for the input molecule. Input: CC1Oc2ccccc2OC1NC1=NCCO1 (configuration not stated)
Result: 108 % of control

Query: Returns the measured T/C for the input molecule. Input: `C(=C\c1nc2ccccc2nc1/C=C/c1ccc2c(c1)OCO2)/c1ccc2c(c1)OCO2`
Result: 95 % of control

Query: Returns the measured T/C for the input molecule. Input: `CN(CCOc1ccccc1O)CCOc1ccccc1O`
Result: 101 % of control

Query: Returns the measured T/C for the input molecule. Input: `CC(C)c1ccc(C(=O)C2CC2)cc1`
Result: 94 % of control

Query: Returns the measured T/C for the input molecule. Input: CC(=O)C1=C(O)C(c2ccccc2)c2ccccc21 (configuration not stated)
Result: 95 % of control

Query: Returns the measured T/C for the input molecule. Input: `Oc1ccccc1C1SCSCS1`
Result: 103 % of control

Query: Returns the measured T/C for the input molecule. Input: `CCCCCCOC(=O)CCC(=O)OCCCCCC`
Result: 97 % of control

----------
System: L1210 leukemia ip in BDF1 mice, survival T/C
method: NCI In Vivo Anticancer Drug Screen. Data for tumor model L1210 Leukemia (intraperitoneal) in B6D2F1 (BDF1) mice
test_conditions: endpoint: mean survival time; dose: 400.0 mg/kg/injection; schedule: Q01DX001 (ip); vehicle: saline; higher = longer survival
Toxic doses and inconclusive results are not listed.
observable: T/C

compound | measurement_target | T/C
COc1ccccc1OC(=O)Nc1ccc(S(=O)(=O)NC2CCCCC2)cc1 | L1210 leukemia ip in BDF1 mice, survival T/C | 94 % of control
CCC([N+](=O)[O-])S(=O)(=O)c1ccc(C)cc1 (stereo not drawn) | L1210 leukemia ip in BDF1 mice, survival T/C | 93 % of control
CS(=O)(=O)OCCN(CCOS(C)(=O)=O)c1ccc([N+](=O)[O-])c(C(F)(F)F)c1 | L1210 leukemia ip in BDF1 mice, survival T/C | 94 % of control
Cc1cc(=O)[nH]c(N/N=C/c2ccccc2O)n1 | L1210 leukemia ip in BDF1 mice, survival T/C | 96 % of control
N=C(CC(=O)Nc1ccccc1)c1ccccc1 | L1210 leukemia ip in BDF1 mice, survival T/C | 101 % of control
CCOC(=O)C1=NN(c2ccccc2)C(=O)C1N=Nc1c(Br)cc(S(N)(=O)=O)cc1Br (stereo not drawn) | L1210 leukemia ip in BDF1 mice, survival T/C | 98 % of control

Query: Returns the measured T/C for the input compound. Input: O=[N+]([O-])c1ccc(NC(c2ccccc2)c2ccc3cccnc3c2O)cc1 (stereo not drawn)
Result: 91 % of control

Query: Returns the measured T/C for the input compound. Input: `CNC(=O)OCCO`
Result: 97 % of control

Query: Returns the measured T/C for the input compound. Input: `Cc1cc(C)c(S(=O)(=O)N=[N+]=[N-])c(C)c1`
Result: 97 % of control

----------
Test system: L1210 leukemia ip in BDF1 mice, survival T/C
method: NCI In Vivo Anticancer Drug Screen. Data for tumor model L1210 Leukemia (intraperitoneal) in B6D2F1 (BDF1) mice
test_conditions: endpoint: mean survival time; dose: 100.0 mg/kg/injection; schedule: Q01DX009 (ip); vehicle: Klucel (hydroxypropylcellulose) (HPC); higher = longer survival
Toxic doses and inconclusive results are not listed.
T/C for assorted molecules

molecule | measurement_target | T/C
N#C/C(=N/O)c1ccccn1 | L1210 leukemia ip in BDF1 mice, survival T/C | 96 % of control
CCc1c([N+](=O)[O-])oc2ccc(Cl)cc12 | L1210 leukemia ip in BDF1 mice, survival T/C | 103 % of control
COc1ccc(Cl)cc1NC(=O)c1ccccc1C(=O)O | L1210 leukemia ip in BDF1 mice, survival T/C | 98 % of control

Query: Query the reported T/C for L1210 leukemia ip in BDF1 mice, survival T/C; item: `O=C(Nc1ccc(Cl)c(Cl)c1)Oc1ccc(C2CCCCC2)cc1`
Result: 95 % of control

Query: Query the reported T/C for L1210 leukemia ip in BDF1 mice, survival T/C; item: `Cc1ccc(Cl)cc1NC(=O)C(c1ccccc1)c1ccccc1`
Result: 95 % of control

Query: Query the reported T/C for L1210 leukemia ip in BDF1 mice, survival T/C; item: `CCCCCCCCCCCCCCOc1ccc(Cl)cc1Cl`
Result: 107 % of control

Query: Query the reported T/C for L1210 leukemia ip in BDF1 mice, survival T/C; item: `COC(=O)c1ccc(OCCOc2ccc(C(C)(C)CC(C)(C)C)cc2)c(N)c1`
Result: 97 % of control

Query: Query the reported T/C for L1210 leukemia ip in BDF1 mice, survival T/C; item: `Cc1cc(=O)[nH]c(N/N=C/c2ccccc2O)n1`
Result: 93 % of control

Query: Query the reported T/C for L1210 leukemia ip in BDF1 mice, survival T/C; item: `Clc1ccc(Cl)c(CBr)c1Cl`
Result: 88 % of control

----------
Test system: L1210 leukemia ip in BDF1 mice, survival T/C
method: NCI In Vivo Anticancer Drug Screen. Data for tumor model L1210 Leukemia (intraperitoneal) in B6D2F1 (BDF1) mice
test_conditions: endpoint: mean survival time; dose: 100.0 mg/kg/injection; schedule: Q04DX003 (ip); vehicle: Klucel (hydroxypropylcellulose) (HPC); higher = longer survival
Inconclusive results and toxic doses are left out.
observable: T/C

Examples with their reported T/C follow.
molecule | observable | result
CCOC(=O)CNC(c1ccccc1)(c1ccccc1)c1ccccc1 | T/C | 91 % of control
CCSc1nc(N)c(C(N)=O)cc1C#N | T/C | 101 % of control

Query: Returns the measured T/C for the input molecule. Input: `CCOC(=O)c1cnc[nH]c1=O`
Result: 100 % of control

Query: Returns the measured T/C for the input molecule. Input: `O=c1[nH]c2cscc2c(=O)n1O`
Result: 103 % of control

Query: Returns the measured T/C for the input molecule. Input: `c1ccc2c(B(c3cccc4ccccc34)c3cccc4ccccc34)cccc2c1`
Result: 94 % of control

----------
T/C for assorted molecules
Tested on: L1210 leukemia ip in BDF1 mice, survival T/C
method: NCI In Vivo Anticancer Drug Screen. Data for tumor model L1210 Leukemia (intraperitoneal) in B6D2F1 (BDF1) mice
test_conditions: endpoint: mean survival time; dose: 400.0 mg/kg/injection; schedule: Q01DX001 (ip); vehicle: other; higher = longer survival
Toxic doses and inconclusive results are not listed.

Examples with their reported T/C follow.
molecule | result
CC(=O)Nc1ccc(/C=N\NC(=O)c2ccco2)cc1 | 87 % of control
Cc1cc(Cl)c(Cl)cc1NC(=O)c1ccccc1F | 91 % of control
CCCCn1cnc2c(SC3CCCC3)ncnc21 | 93 % of control
CCCCCCCCOC(=O)c1[nH]cnc1/N=N\N(C)C | 104 % of control
CCCCCCCCCC(=O)NO | 95 % of control

Query: Returns the measured T/C for the input molecule. Input: `O=NN(CCN(N=O)c1ccccc1)c1ccccc1`
Result: 92 % of control

Query: Returns the measured T/C for the input molecule. Input: `COc1ccc(/C(C#N)=C/c2ccncc2)cc1OC`
Result: 97 % of control

Query: Returns the measured T/C for the input molecule. Input: `Cc1cc(O)c(C)c2c1CC[C@H]1[C@@H]2OC(=O)[C@@H]1C`
Result: 97 % of control

Query: Returns the measured T/C for the input molecule. Input: CC(=O)Nc1ccc(C(=O)C(O)c2ccc(NC(C)=O)cc2)cc1 (configuration not stated)
Result: 88 % of control

Query: Returns the measured T/C for the input molecule. Input: CC(=O)C1(C(C)=O)C(c2cccc([N+](=O)[O-])c2)C1(c1ccccc1)[N+](=O)[O-] (configuration not stated)
Result: 95 % of control

Query: Returns the measured T/C for the input molecule. Input: `O=C(Cc1ccccc1)c1ccccn1`
Result: 101 % of control

Query: Returns the measured T/C for the input molecule. Input: `Cn1c(=O)c2c(nc(OCCC3CCCCC3)n2C)n(C)c1=O`
Result: 93 % of control
